# Tested on: Rattus norvegicus
# assay-info: Toxicity in rat assessed as incidence of hyperaemia at 400 mg/kg, po
# Assay type: organism-based
# Set-up: dose 400 mg/kg, route oral
# study-conditions: in vivo
// values below are reported Activity
All answers are understood in %, so give the number only.

smiles-entry	result-number
O=C(Oc1ccc(Br)cc1C(=O)c1ccc(Cl)cc1)c1ccc(Cl)cc1	100

**Query** # returns recorded Activity (system: Rattus norvegicus) for Cc1ccc(C(=O)Oc2ccc(C)cc2C(=O)c2ccccc2)cc1
**Result** 55

**Query** Another compound to look at: Cc1ccc(C(=O)c2cc(C)ccc2OC(=O)c2ccc(Cl)cc2)cc1
**Result** 75

**Query** Same for Cc1ccc(C(=O)Oc2ccc(C)cc2C(=O)c2ccc(C)cc2)cc1
**Result** 80

**Query** Next up: Cc1ccc(OC(=O)c2ccccc2)c(C(=O)c2cccc(F)c2)c1
**Result** 50

###

# Test system: Rattus norvegicus
# assay-info: Toxicity in rat assessed as incidence of ulcer at 100 mg/kg, po
# Format: organism-based
# Parameters: dose 100 mg/kg, route oral
# study-conditions: in vivo
Cut-off 10% on Activity, inclusive. At or above means Y; below means N.

Would you please look over these solved cases?
smiles-entry	assigned-label
Cc1ccc(C(=O)Oc2ccc(C)cc2C(=O)c2ccccc2)cc1	Y
O=C(Oc1ccc(Br)cc1C(=O)c1ccc(Cl)cc1)c1ccc(Cl)cc1	N
Cc1ccc(OC(=O)c2cccc(Cl)c2)c(C(=O)c2cccc(Cl)c2)c1	Y
Cc1ccc(OC(=O)c2ccccc2)c(C(=O)c2ccc(Cl)cc2)c1	Y
CCCCC1C(=O)N(c2ccccc2)N(c2ccccc2)C1=O	Y

**Query** Form field: Activity at least 10%? Entry: Cc1ccc(C(=O)Oc2ccc(F)cc2C(=O)c2ccc(C)cc2)cc1
**Result** Y

**Query** Also check O=C(Oc1ccc(Cl)cc1C(=O)c1ccc(Cl)cc1)c1ccc(Cl)cc1
**Result** N

###

# Test system: Rattus norvegicus
# assay-info: Toxicity in rat assessed as incidence of hyperaemia at 200 mg/kg, po
# Format: organism-based
# Parameters: dose 200 mg/kg, route oral
# study-conditions: in vivo
Quick rule for you: Activity at 60% or higher means y, lower means n.

smiles-entry	assigned-label
Cc1ccc(C(=O)c2cc(F)ccc2OC(=O)c2ccc(Cl)cc2)cc1	y
Cc1ccc(OC(=O)c2cccc(Cl)c2)c(C(=O)c2cccc(Cl)c2)c1	n
Cc1ccc(C(=O)Oc2ccc(C)cc2C(=O)c2ccccc2)cc1	n
Cc1ccc(OC(=O)c2ccccc2)c(C(=O)c2cccc(F)c2)c1	n
O=C(Oc1ccc(Br)cc1C(=O)c1ccc(Cl)cc1)c1ccc(Cl)cc1	y

**Query** Does the compound Cc1ccc(OC(=O)c2ccccc2C)c(C(=O)c2ccccc2C)c1 have recorded Activity that is 60% or more?
**Result** y

###

# Tested on: Rattus norvegicus
# assay-info: Toxicity in rat assessed as incidence of hyperaemia at 400 mg/kg, po
# Type: organism-based
# Design: dose 400 mg/kg, route oral
# study-conditions: in vivo
# reported Activity; entries follow
Quick reminder: number only, in %, skip the unit.

**Query** I am curious: what Activity value has been reported for Cc1ccc(OC(=O)c2cccc(Cl)c2)c(C(=O)c2cccc(Cl)c2)c1 ?
**Result** 50

###

Consider the following compounds and their measured LD50 readings.
# assay-info: Toxicity in ip dosed Albino mouse
# Type: organism-based
# study-conditions: in vivo, read-out: ALD50

smiles-entry	LD50
O=C(Oc1ccc(Br)cc1C(=O)c1ccc(Cl)cc1)c1ccc(Cl)cc1	> 1000 mg/kg
Cc1ccc(OC(=O)c2ccccc2)c(C(=O)c2ccc(Cl)cc2)c1	> 1000 mg/kg

Proceeding to the next compound to report its LD50.
**Query** Sample Cc1ccc(OC(=O)c2cccc(Cl)c2)c(C(=O)c2cccc(Cl)c2)c1 — what was its LD50?
**Result** > 1000 mg/kg

###

# Test system: Rattus norvegicus
# assay-info: Toxicity in rat assessed as incidence of ulcer at 400 mg/kg, po
# Format: organism-based
# Set-up: dose 400 mg/kg, route oral
# study-conditions: in vivo
Criterion: Activity strictly less than 40%. Met: Y. Not met: N.

Look over these answered cases.
molecule	assigned-label
Cc1ccc(OC(=O)c2cccc(Cl)c2)c(C(=O)c2cccc(Cl)c2)c1	N
Cc1ccc(OC(=O)c2ccccc2)c(C(=O)c2cccc(F)c2)c1	N
Cc1ccc(C(=O)Oc2ccc(Cl)cc2C(=O)c2ccc(Cl)cc2)cc1	Y

**Query** Find out if reported Activity for Cc1ccc(C(=O)Oc2ccc(C)cc2C(=O)c2ccccc2)cc1 is less than 40%
**Result** N

###

# Tested on: Rattus norvegicus
# assay-info: Toxicity in rat assessed as incidence of ulcer at 200 mg/kg, po
# Format: organism-based
# Set-up: dose 200 mg/kg, route oral
# study-conditions: in vivo
measure-name: Activity (%)
Kindly answer with a numeric value in %, unit omitted.

smiles-entry	target-desc	unit-name	Activity
Cc1ccc(C(=O)Oc2ccc(Cl)cc2C(=O)c2ccc(Cl)cc2)cc1	Rattus norvegicus	%	15
Cc1ccc(OC(=O)c2ccccc2)c(C(=O)c2ccccc2)c1	Rattus norvegicus	%	20
Cc1ccc(OC(=O)c2ccccc2)c(C(=O)c2cccc(F)c2)c1	Rattus norvegicus	%	65
Cc1ccc(C(=O)Oc2ccc(C)cc2C(=O)c2ccccc2)cc1	Rattus norvegicus	%	55
O=C(Oc1ccc(Cl)cc1C(=O)c1ccc(Cl)cc1)c1ccc(Cl)cc1	Rattus norvegicus	%	10
Cc1ccc(C(=O)c2cc(F)ccc2OC(=O)c2ccc(Cl)cc2)cc1	Rattus norvegicus	%	20
CCCCC1C(=O)N(c2ccccc2)N(c2ccccc2)C1=O	Rattus norvegicus	%	65
O=C(Oc1ccc(Br)cc1C(=O)c1ccc(Cl)cc1)c1ccc(Cl)cc1	Rattus norvegicus	%	10
Cc1ccc(C(=O)Oc2ccc(F)cc2C(=O)c2ccc(C)cc2)cc1	Rattus norvegicus	%	25
Cc1ccc(OC(=O)c2cccc(Cl)c2)c(C(=O)c2cccc(Cl)c2)c1	Rattus norvegicus	%	65

**Query** Dear colleague, I am looking for the recorded Activity of the following compound: O=C(Oc1ccc(Cl)cc1C(=O)c1cccc(Cl)c1Cl)c1ccccc1
**Result** 20

**Query** Would you mind doing CC(=O)Oc1ccccc1C(=O)O as well?
**Result** 90

**Query** And then Cc1ccc(C(=O)Oc2ccc(C)cc2C(=O)c2ccc(C)cc2)cc1 , what is it?
**Result** 15

**Query** Likewise for Cc1ccc(OC(=O)c2ccccc2C)c(C(=O)c2ccccc2C)c1 ?
**Result** 30

**Query** Moving on to the next compound: Cc1ccc(OC(=O)c2ccccc2)c(C(=O)c2ccc(Cl)cc2)c1
**Result** 50

**Query** Next compound: Cc1ccc(C(=O)c2cc(C)ccc2OC(=O)c2ccc(Cl)cc2)cc1
**Result** 25

###

# System: Rattus norvegicus
# assay-info: Toxicity in rat assessed as incidence of ulcer at 100 mg/kg, po
# Assay type: organism-based
# Set-up: dose 100 mg/kg, route oral
# study-conditions: in vivo
measure-name: Activity
Kindly report the value followed by its unit.

Below, each entry is followed by its recorded Activity result.
smiles-entry	Activity
Cc1ccc(C(=O)Oc2ccc(C)cc2C(=O)c2ccc(C)cc2)cc1	10%
Cc1ccc(OC(=O)c2ccccc2)c(C(=O)c2ccccc2)c1	10%

Attention now shifts to the item below.
**Query** API: value(readout=Activity, system=Rattus norvegicus) for record Cc1ccc(C(=O)Oc2ccc(Cl)cc2C(=O)c2ccc(Cl)cc2)cc1
**Result** 10%

###

# Test system: Rattus norvegicus
# assay-info: Toxicity in rat assessed as incidence of hyperaemia at 200 mg/kg, po
# Format: organism-based
# Design: dose 200 mg/kg, route oral
# study-conditions: in vivo
Note to self: Activity under 60% means true, ties and anything higher get false.

Worked set:
smiles-entry	target-desc	assigned-label
O=C(Oc1ccc(Cl)cc1C(=O)c1cccc(Cl)c1Cl)c1ccccc1	Rattus norvegicus	false
CCCCC1C(=O)N(c2ccccc2)N(c2ccccc2)C1=O	Rattus norvegicus	true
Cc1ccc(OC(=O)c2ccccc2)c(C(=O)c2ccc(Cl)cc2)c1	Rattus norvegicus	true
O=C(Oc1ccc(Cl)cc1C(=O)c1ccc(Cl)cc1)c1ccc(Cl)cc1	Rattus norvegicus	false
Cc1ccc(C(=O)Oc2ccc(Cl)cc2C(=O)c2ccc(Cl)cc2)cc1	Rattus norvegicus	false

**Query** Please state whether Activity is below 60% for Cc1ccc(C(=O)c2cc(C)ccc2OC(=O)c2ccc(Cl)cc2)cc1
**Result** true

**Query** Repeat for the following compound: Cc1ccc(C(=O)Oc2ccc(F)cc2C(=O)c2ccc(C)cc2)cc1
**Result** true

**Query** Next compound up: CC(=O)Oc1ccccc1C(=O)O
**Result** true

###

The following compounds are listed with their measured Activity values.
# System: Rattus norvegicus
# assay-info: Toxicity in rat assessed as incidence of hyperaemia at 400 mg/kg, po
# Type: organism-based
# Design: dose 400 mg/kg, route oral
# study-conditions: in vivo

smiles-entry	target-desc	Activity
Cc1ccc(OC(=O)c2ccccc2)c(C(=O)c2ccc(Cl)cc2)c1	Rattus norvegicus	60%
Cc1ccc(OC(=O)c2ccccc2C)c(C(=O)c2ccccc2C)c1	Rattus norvegicus	90%

**Query** Form field - read-out: Activity; system: Rattus norvegicus; submitted item: O=C(Oc1ccc(Cl)cc1C(=O)c1cccc(Cl)c1Cl)c1ccccc1
**Result** 100%

**Query** For O=C(Oc1ccc(Cl)cc1C(=O)c1ccc(Cl)cc1)c1ccc(Cl)cc1 then?
**Result** 100%

**Query** Now the same for CCCCC1C(=O)N(c2ccccc2)N(c2ccccc2)C1=O
**Result** 80%

**Query** How about CC(=O)Oc1ccccc1C(=O)O ?
**Result** 85%

**Query** Please answer likewise for Cc1ccc(C(=O)c2cc(F)ccc2OC(=O)c2ccc(Cl)cc2)cc1
**Result** 90%

**Query** Check Cc1ccc(C(=O)Oc2ccc(F)cc2C(=O)c2ccc(C)cc2)cc1 too.
**Result** 90%

**Query** Would you kindly repeat that for Cc1ccc(OC(=O)c2ccccc2)c(C(=O)c2ccccc2)c1 ?
**Result** 100%

**Query** Also Cc1ccc(C(=O)Oc2ccc(Cl)cc2C(=O)c2ccc(Cl)cc2)cc1 ?
**Result** 100%
